- Tested on: PXR:RXRa (NR concentration 270 nM, RXRa partner concentration 90 nM)
- method.notes: PBM binding z-score (relative to random genomic background probes); higher = stronger binding; sequences stand for … in GC…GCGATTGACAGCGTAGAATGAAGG
I'd appreciate it if you could supply PBM binding z-score values for the items below.
Give bare numbers.

CCTCGGAGGACAGAAGGTCGGAGCTGTCCGCTTT : -0.282
ACTATTAGTTGACTTAGGTCAACCGATACGACGC : 2.2
ATACCAAGGTGATCGTGAGATCGTTGATACTAAC : -0.151
CAGCCTAGGTCATGGCCAGTATAGGAGGAACGTT : 1.53
TTACCAAGGTGAAGGTCGTTGACCCCTCTGTAGA : 4.73

Now for another entry.
(Q) Which PBM binding z-score value is on record for CCTCGGCGGACAACAGGAGGTCAGAGCTGCCAGA ?
(A) 1.32

###

- Test system: PPARg homodimer (NR concentration 180 nM)
- method.notes: PBM binding z-score (relative to random genomic background probes); higher = stronger binding; sequences stand for … in GC…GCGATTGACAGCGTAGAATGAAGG
Given measured PBM binding z-score, output Met if it is greater than or equal to 1 and Not met if not.

Example results:
AGAACGAGGGCAATGAGTTGTTAGCACGGGTGGC : Not met
ACTAGTTGGTCGGCTGAGGTCACACACAATTCGG : Met
GCATATAGGTCATACAAGGTGAAAGTCCGATTGT : Met
TAGCCTAGGTCAGGCGGGCCAGTATAGTGTCGGC : Not met
TCTATTAGTTGAAAGGCAACCGACGAGTCCGTTT : Met
TGTCAAAGTTCAAAGGTAAGGTAAGTATCCACAC : Met
AATACAGGGTCACTAGGCCAGTGTAGGTACGAAT : Met
TCTTGTAGATCAACAGGAGGTTAAGAAGGATCGA : Not met
TAGCCTAGGGCATGGGCCAGTATACCACGCGAAC : Not met
GGAACGAGGGCAAGTTGATAGCCGAGTTTGATGG : Not met

Continue with the sequence presented below.
(Q) Hi team, for TCTGCTAGGTCAAAGATGGTCAGCTAATCTGCTA , is the recorded PBM binding z-score at or above 1?
(A) Not met

###

- Tested on: THRa:RXRa (NR concentration 90 nM, RXRa partner concentration 90 nM)
- method.notes: PBM binding z-score (relative to random genomic background probes); higher = stronger binding; sequences stand for … in GC…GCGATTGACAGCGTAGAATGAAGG
Give measured PBM binding z-score for each item. Keep answers brief.
Numbers only.

Examples from the recorded data:
CCGACTGGGGCAAGGTAACCATAACGCACAGCCA : 0.522
GCGACTGGGGCAAAGCAGCTTACCATAAGGTTGG : -0.139
CGTCCAAGGTCAATACTAGGTCAGTGAAAGCATT : 4.42
AGAATGAGGTTATTAAGATCAGGCAATTGCGGTC : 2.22
TCTCGGAGGACACGAAAGGACAGAGCTCGACATC : 2.23

We next turn to a different sequence, shown below.
(Q) Lab note: need PBM binding z-score for CGTCCAAGGTCAATGCTAGGTGAGTGAAAGCATT on THRa:RXRa (NR concentration 90 nM, RXRa partner concentration 90 nM), anyone have it?
(A) 3.92

###

- System: PPARg homodimer (NR concentration 180 nM)
- method.notes: PBM binding z-score (relative to random genomic background probes); higher = stronger binding; sequences stand for … in GC…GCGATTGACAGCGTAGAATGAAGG
PBM binding z-score vs 2: at or above is true, below is false.

(Q) For this sequence, is measured PBM binding z-score 2 or higher? GCGACTGGGGCATCAGCAGATTACCATAACTTAA
(A) false

(Q) Check if PBM binding z-score >= 2 (inclusive). Item: CAAACTAGGTCACAGAGGTGAAAGTCCGTGCGTA
(A) true

(Q) Identify whether the reported PBM binding z-score of the following sequence is 2 or greater: GCAGATAGGTAATACAAGGTGAAAGTCCGATTGT
(A) false

(Q) Check the entry TCATATAGGTAATACAGGTGGAAGTCGGCATCTA : does PBM binding z-score equal or exceed 2?
(A) false

(Q) // inclusive: PBM binding z-score at least 2? input: CCGACTGGGGCAAAGGTTACCATTCTCAGTACGA
(A) true

###

- Test system: RARb:RXRa (NR concentration 270 nM, RXRa partner concentration 90 nM)
- method.notes: PBM binding z-score (relative to random genomic background probes); higher = stronger binding; sequences stand for … in GC…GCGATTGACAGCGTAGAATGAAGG
measure: PBM binding z-score

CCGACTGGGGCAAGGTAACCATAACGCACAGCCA : 0.619
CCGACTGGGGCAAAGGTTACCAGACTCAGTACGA : 2.66
CGAACGAGGGCATGAGTTGGTAGCAAATGCCGAT : 1.81
CGAACTAGGTCACGAAAGGTCAAAGTCGAATGAC : 5.68
CCTACTGGGCCAAACAGGTCATTGATGCCGATAA : 1.68
TCTTGTAGATCATTAGAGGTTAAGAAAGTGCGCT : 1.01

Please give PBM binding z-score for each item listed below.
1. CCTGCTGGGCCATCAGGTCATTGATATCAACGTT
2. TAGCATAGGTCATTCAGGGGCCAGTATAGAAAGC

(A)
[2.02, 4.4]

###

- Test system: PXR:RXRa (NR concentration 270 nM, RXRa partner concentration 90 nM)
- method.notes: PBM binding z-score (relative to random genomic background probes); higher = stronger binding; sequences stand for … in GC…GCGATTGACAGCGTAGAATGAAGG
measure: PBM binding z-score
Answers are plain numbers.

Consider the worked cases shown below.
TCTACTAGGTCAGTTGGTCAGCTAACGAGCTGCC : 0.537
CCTTACGGGTAACTGACAGGTTATAGCATTTGGA : 0.109
CCTACTGGGCCAAGGTCATCGATCAGTCAAAGCA : 3.71
GCGGCTAGGTCAACTGATGGTCAGCTAAAGCTCG : 1.59
TCTATTAGTTTAAGGGCAACCGACGAGTCCGTTT : 1.39
TCATATAGGTAATACAGGTGAAAGACGGCATCTA : 0.845
GATACAGGGTAAAGGCCAGAGTACGCGTATTGAT : 0.017
TCTAGATGGTCACGGAGGTCACACACGACGGGTA : 4.87

Dear colleague, could you send me PBM binding z-score for each of the items below? Thanks.
1. TATAGTTGGTCACGGAGGTCACACACGACGGGTA
2. ACTATGAGTTGACTTAGGGCAACCGATACGACGC

(A)
1. 4.66
2. 0.608

Here are 4 sequences. What values of PBM binding z-score were reported for them?
1. TCGAGTAGGTTACCTATGGGGCATTCAGCTTTCT
2. ATCGCTAGGTAAAGATAGTTCAGTGAATGCAAAT
3. CAAACTAGGTCTCGAAAGGTCAAAGTCGAATGAC
4. CAAACTAGGTCACAGAGGTCATAGTCCGTGCGTA

(A)
[0.0182, 0.306, 5.61, 6.52]

Batch: PBM binding z-score for all items listed.
1. ACTATTAGTTGACTTAGGGCAACCGGTACGACGC
2. ATCTCTAGGTCACCAAGTTCAGTGAATGCCGAAC
3. AGAACGAGGGCACGCTGAGTTGATAGGAGAGTAG
4. ATCTCGAGGTAAGACTCAGTTCAGTGAAGAACGC
5. CCTTACGGGTCACTGACAGATTATAGCATTTGGA
6. TCTCGGAGGACACGAAGGTCATAGCTTTCCAGAG
7. TAGCCTAGGTCATTAAGGGGCCAGTATAGAAAGC

(A)
0.35
5.68
1.1
1.38
3.04
3.8
1.36

###

- Tested on: PXR:RXRa (NR concentration 270 nM, RXRa partner concentration 90 nM)
- method.notes: PBM binding z-score (relative to random genomic background probes); higher = stronger binding; sequences stand for … in GC…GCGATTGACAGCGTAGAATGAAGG
measure: PBM binding z-score

TCTTGTAGATCAAGCAGGTTAAGACAGCCTGAGT : 0.414
AGAATGAGGTTATCAAAGATCAGGGAAACGCTTG : 1.25
TCATATAGGTAAAAGGGGAAAGTCGGTGTGGTAA : 0.624
GCAGACAGGTGAAAAGCAGGTAACTCAGGGTGGC : -0.441

I'm hoping you can list PBM binding z-score for every sequence here, please.
1. CCTCGGAGGACAACAGGAGGTCAGACCTGCCAGA
2. CCTTCCGGGTCACTCCAGGTTATAGCATCGGAGT

(A)
[2.11, 4.83]
